assay: refractive index (Na D-line) (dimensionless); settings: 288.2 K; 101.33 kPa; Liquid; Standard Abbe refractometry
measured quantity: refractive index

{"molecule": "O [water]", "refractive index": 1.3334}
{"molecule": "CCOC(C)=O [ethyl acetate]", "refractive index": 1.3749}
{"molecule": "CCCOC(C)=O [propyl ethanoate]", "refractive index": 1.3866}
{"molecule": "O=Cc1ccco1 [2-furaldehyde]", "refractive index": 1.528}
{"molecule": "CCCCO [butan-1-ol]", "refractive index": 1.4013}

###

assay: refractive index (Na D-line) (dimensionless); settings: 303.2 K; 101.33 kPa; Liquid; Standard Abbe refractometry
measured quantity: refractive index

{"compound": "CCCOC(C)=O [propyl ethanoate]", "measured result": 1.3792}
{"compound": "O", "measured result": 1.3319}
{"compound": "CCCCO", "measured result": 1.3952}
{"compound": "CCOC(C)=O [ethyl acetate]", "measured result": 1.3672}
{"compound": "O=Cc1ccco1", "measured result": 1.5206}

###

conditions: 318.2 K; 101.33 kPa; Liquid; Vibrating tube method
measured quantity: mass density (kg/m3)

{"compound": "CCCOC(C)=O [propyl ethanoate]", "measurement unit": "kg/m3", "mass density": 860.512}
{"compound": "CCOC(C)=O [ethyl acetate]", "measurement unit": "kg/m3", "mass density": 869.522}
{"compound": "CCCCO [butan-1-ol]", "measurement unit": "kg/m3", "mass density": 790.724}
{"compound": "O=Cc1ccco1 [2-furaldehyde]", "measurement unit": "kg/m3", "mass density": 1133.83}

###

experiment: refractive index (Na D-line) (dimensionless); details: 318.2 K; 101.33 kPa; Liquid; Standard Abbe refractometry
measured quantity: refractive index

{"molecule": "CCCOC(C)=O [propyl ethanoate]", "refractive index": 1.3717}
{"molecule": "O=Cc1ccco1", "refractive index": 1.5133}
{"molecule": "CCOC(C)=O [ethyl acetate]", "refractive index": 1.3594}
{"molecule": "O", "refractive index": 1.3298}
{"molecule": "CCCCO", "refractive index": 1.3892}

###

settings: 288.2 K; 101.33 kPa; Liquid; Vibrating tube method
measured quantity: mass density (kg/m3)

{"compound": "O=Cc1ccco1 [2-furaldehyde]", "measurement unit": "kg/m3", "mass density": 1165.24}
{"compound": "CCCCO [butan-1-ol]", "measurement unit": "kg/m3", "mass density": 813.82}
{"compound": "CCOC(C)=O [ethyl acetate]", "measurement unit": "kg/m3", "mass density": 906.89}
{"compound": "CCCOC(C)=O [propyl ethanoate]", "measurement unit": "kg/m3", "mass density": 894.325}

###

conditions: 303.2 K; 101.33 kPa; Liquid; Vibrating tube method
measured quantity: mass density (kg/m3)

{"molecule": "O=Cc1ccco1", "mass density [kg/m3]": 1149.77}
{"molecule": "CCOC(C)=O [ethyl acetate]", "mass density [kg/m3]": 888.196}
{"molecule": "CCCOC(C)=O [propyl ethanoate]", "mass density [kg/m3]": 877.529}
{"molecule": "CCCCO", "mass density [kg/m3]": 802.407}

Ref: the NIST ThermoML archive (doi:10.1016/j.fluid.2012.07.032)
